In this section we review reported pIC50 values for a set of compounds.
# TARGET: unphosphorylated c-FMS kinase (uFMS, Seq. ID no. 1) (Homo sapiens, UniProt P07333)
# Sequence (P07333 538-972): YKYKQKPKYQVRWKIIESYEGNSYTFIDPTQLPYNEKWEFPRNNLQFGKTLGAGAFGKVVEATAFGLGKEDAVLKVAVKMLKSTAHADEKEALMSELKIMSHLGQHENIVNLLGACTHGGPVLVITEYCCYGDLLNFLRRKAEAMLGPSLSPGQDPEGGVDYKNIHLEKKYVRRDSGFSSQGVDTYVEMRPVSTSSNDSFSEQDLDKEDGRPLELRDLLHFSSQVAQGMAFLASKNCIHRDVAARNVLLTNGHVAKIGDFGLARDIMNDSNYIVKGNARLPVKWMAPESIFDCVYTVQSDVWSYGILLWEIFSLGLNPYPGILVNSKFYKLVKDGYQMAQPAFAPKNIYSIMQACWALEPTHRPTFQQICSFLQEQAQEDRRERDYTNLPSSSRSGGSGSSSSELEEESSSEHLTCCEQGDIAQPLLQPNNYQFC
# ASSAY OVERVIEW: uFMS kinase assay (pyruvate kinase/lactate dehydrogenase coupled)
# ASSAY SETUP: ATP 500 μM
pIC50: −log10 of the molar value.

Example entries begin here.
Qu. Give its pIC50 value. Item: CC(C)(C)C(=O)NC(=O)Nc1ccc(Oc2ccnc(C(=O)NC3CC3)c2)cn1 [Example 74]
Ans. 7.00 to 8.00

Qu. Input CN(C)C1CCN(C(=O)Nc2cc(Oc3ccc(NC(=O)NC(=O)C(C)(C)C)nc3)ccn2)CC1 [Example 76]
Ans. > 8.00

Qu. Input CN(C)[C@H]1CCN(C(=O)Nc2cc(Oc3ccc(NC(=O)NC(=O)C(C)(C)C)nc3)ccn2)C1 [Example 47]
Ans. > 8.00

Qu. Input CNC(=O)c1cc(Oc2ccc(NC(=O)NC(=O)C3(C)CCOCC3)nc2)ccn1 [Example 70]
Ans. 6.00 to 7.00

Qu. Input Cc1nc(NC(=O)NC(=O)C(C)(C)C)ccc1Oc1ccnc(NC(=O)N(C)C)c1 [Example 62]
Ans. > 8.00

New cases:
Qu. Give its pIC50 value. Item: CCN1CCN(C(=O)Nc2cc(Oc3ccc(NC(=O)NC(=O)C(C)(C)C)nc3)ccn2)CC1 [Example 80]
Ans. > 8.00

Qu. Input CC(C)(C)C(=O)NC(=O)Nc1ccc(Oc2ccnc(NC(=O)N3CCOCC3)c2)cn1 [Example 46]
Ans. > 8.00

Qu. Input CC(=O)Nc1cc(Oc2ccc(NC(=O)NC(=O)C3CC4CCC3O4)nc2)ccn1 (centres unmarked) [Example 28]
Ans. > 8.00
